Listed next: entries and their corresponding EC50 of peptide.
Target or system: T1, MAGE-A1 peptide on HLA-A*02:01 (human)
T1 peptide: KVLEYVIKV
Assay text: JKR9 reporter + peptide-loaded T2, 16 h; full-length, on cells
Answer format: numeric, nM implied, no suffix.

// worked examples, EC50 of peptide included
>>> value("ht27M1381 (TCR, V domains shown) Valpha: GEDVEQSLFLSVREGDSSVINCTYVDPYSTYLYWYKQEPGAGLQLLTYIFSNMDMKQDQRLTVLLNKKDKHLSLRIADTQTGDSAIYFCAGSGGGTDKLIFGTGTRLQVFP Vbeta: GAVVSQHPSWVICKSGTSVKIECRSLDFQATTMFWYRQFPKQSLMLMATSNEGSKATYEQGVEKDKFLINHASLTLSTLTVTSAHPEDSSFYICSAREPGQGPYEQYFGPGTRLTVT")
128
>>> value("ht27M1285 (TCR, V domains shown) Valpha: GEDVEQSLFLSVREGDSSVINCTYTDSSSTYLYWYKQEPGAGLQLLTYIFSFMDMKQDQRLTVLLNKKDKHLSLRIADTQTGDSAIYFCAGSGGGTDKLIFGTGTRLQVFP Vbeta: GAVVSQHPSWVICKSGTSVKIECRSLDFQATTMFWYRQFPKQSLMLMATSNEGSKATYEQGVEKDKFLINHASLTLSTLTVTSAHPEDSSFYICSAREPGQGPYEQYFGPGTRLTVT")
59.3

Let us examine a further case.
Exam item: So what's the measured EC50 of peptide for this one? ht27M1001 (TCR, V domains shown) Valpha: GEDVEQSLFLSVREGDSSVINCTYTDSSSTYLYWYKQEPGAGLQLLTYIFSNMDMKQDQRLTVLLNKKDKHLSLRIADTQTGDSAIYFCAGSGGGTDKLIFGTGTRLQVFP Vbeta: GAVVSQHPSWVICKSGTSVKIECRSLDFQATTMFWYRQFPKQSLMLMATSDYQTCVTYEQGVEKDKFLINHASLTLSTLTVTSAHPEDSSFYICSAREPGQGPYEQYFGPGTRLTVT
Marked response: 42.8
